- protocol-description: chemical genetic growth profiling, strain panel (AID 1159580);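 further: tested at 20 µM; growth read once vehicle control cultures reached saturation at 30 °C; 1 = growth at the plate median or of vehicle wells; lower values mean less growth of the strain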
- test-context: S. cerevisiae deletion strains, growth OD, locus YER155C, strain BEM2 (second series), active compounds read low
Out of some 5,500 compounds screened, about 2,000 (36%) were called active. Not shown: some 18% with an inconclusive outcome. The list shows a part of the results.
// normalized growth lookup, one value per entry
quantity-name: normalized growth

- compound: "CCC(C)C(NC)C(=O)O (centres undefined)"
  quantity-name: "normalized growth"
  recorded-number: 1.01
- compound: "C[C@H]1[C@H](C)CC[C@]2(CO)CC[C@]3(C)C(=CCC4[C@@]5(C)CC[C@H](O)C(C)(C)C5CC[C@]43C)[C@H]12 (some centres undefined)"
  quantity-name: "normalized growth"
  recorded-number: 0.995
- compound: "CNC(=O)O/N=C\\C(C)(C)SC"
  quantity-name: "normalized growth"
  recorded-number: 0.995
- compound: "C[C@@H]1CC[C@]2(C(=O)O)CC[C@]3(C)C(=CCC4[C@@]5(C)CC[C@H](O)C(C)(C)C5CC[C@]43C)C2[C@H]1C (some centres undefined)"
  quantity-name: "normalized growth"
  recorded-number: 0.992
- compound: "CC(=O)O[C@H]1CC[C@@]2(C)C(CC[C@]3(C)C2CC=C2C4CC(C)(C)CC[C@]4(C)CC[C@]23C)C1(C)C (some centres undefined)"
  quantity-name: "normalized growth"
  recorded-number: 1.02
- compound: "CC(C)CC(N(C)C)C1(c2ccc(Cl)cc2)CCC1 (centres undefined)"
  quantity-name: "normalized growth"
  recorded-number: 1.03
- compound: "CC(CC(=O)C1OC1(C)C)C1C(=O)CC2(C)C3=CCC4C(C)(C)C(OC5OCC(O)C(O)C5O)CCC45CC35C(O)CC12C (centres undefined)"
  quantity-name: "normalized growth"
  recorded-number: 1.03
- compound: "CC(CC(=O)C(O)C(C)(C)O)C1C(=O)CC2(C)C3=CCC4C(C)(C)C(OC5OCC(O)C(O)C5O)CCC45CC35C(O)CC12C (centres undefined)"
  quantity-name: "normalized growth"
  recorded-number: 1.02
- compound: "C[C@@H]1OC(O[C@H]2C(O[C@H]3CC[C@@]4(C)C(CC[C@]5(C)C4CC=C4C6CC(C)(C)CC[C@]6(C(=O)O)CC[C@]45C)[C@]3(C)CO)OC[C@H](O)[C@@H]2O)[C@H](O)[C@H](O)[C@H]1O (some centres undefined)"
  quantity-name: "normalized growth"
  recorded-number: 0.0853

* * *

- protocol-description: chemical genetic growth profiling, strain panel (AID 1159580);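 further: tested at 20 µM; growth read once vehicle control cultures reached saturation at 30 °C; 1 = growth at the plate median or of vehicle wells; lower values mean less growth of the strain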
- test-context: S. cerevisiae deletion strains, growth OD, locus YLR258W, strain gsy2, active compounds read low
Among all 5,500 compounds or so, about 2,000 (36%) were called active. Inconclusive results (about 18%) are left out. The list shows a part of the results. Where a SMILES comes first, the peptide text is derived from it. Bridges are numbered along the chain shown (N, C = ends). [ ]: non-standard residue; d: D form. The star is where a group is joined. ξ: configuration not given here. ξDab(CH2SO3H) = NC(CCNCS(=O)(=O)O)C(=O)O; Heptanoyl(6-Me) = CC(C)CCCCC(=O)*; Dab = NCC[CH](N)C(=O)O
The following compounds are shown together with reported normalized growth values.

- compound: "CNC(=O)O/N=C\\C(C)(C)SC"
  normalized growth: 0.996
- compound: "CC1(C)CC[C@]2(C(=O)O)CC[C@]3(C)C(=CCC4[C@@]5(C)CC[C@H](O)[C@@](C)(CO)C5CC[C@]43C)C2C1 (some centres not stated)"
  normalized growth: 1.02
- compound: "C[C@@H]1OC(O[C@H]2C(O[C@H]3CC[C@@]4(C)C(CC[C@]5(C)C4CC=C4C6CC(C)(C)CC[C@]6(C(=O)O)CC[C@]45C)[C@]3(C)CO)OC[C@H](O)[C@@H]2O)[C@H](O)[C@H](O)[C@H]1O (some centres not stated)"
  normalized growth: 0.0581
- compound: "CCC(C)C1NC(=O)C(CCNCS(=O)(=O)O)NC(=O)C(NC(=O)C(CCNCS(=O)(=O)O)NC(=O)C(NC(=O)C(CCNCS(=O)(=O)O)NC(=O)CCCCC(C)C)C(C)O)CCNC(=O)C(C(C)O)NC(=O)C(CCNCS(=O)(=O)O)NC(=O)C(CCNCS(=O)(=O)O)NC(=O)C(C(C)CC)NC1=O (configuration not stated) ({Heptanoyl(6-Me)}-[ξDab(CH2SO3H)]T[ξDab(CH2SO3H)][Dab][ξDab(CH2SO3H)]II[ξDab(CH2SO3H)][ξDab(CH2SO3H)]T; lactam 4-C; configuration not given here)"
  normalized growth: 0.99
- compound: "COC(=O)Nc1nc2ccc(C(=O)c3ccccc3)cc2[nH]1"
  normalized growth: 0.949
- compound: "C[C@@H]1CC[C@]2(C(=O)O)CC[C@]3(C)C(=CCC4[C@@]5(C)CC[C@H](O)C(C)(C)C5CC[C@]43C)C2[C@H]1C (some centres not stated)"
  normalized growth: 1.01
- compound: "CC(=O)O[C@@H]1CC[C@@]2(C)C(CC[C@]3(C)C2CC=C2C4CC(C)(C)CC[C@]4(C(=O)O)CC[C@]23C)C1(C)C (some centres not stated)"
  normalized growth: 0.98
